Recorded pIC50 for the following compounds
- ASSAY SYSTEM: USP1 (construct USP1 (I-785, GG670, 671AA)/UAF1 (I-677)-Flag) (Homo sapiens (Human), UniProt O94782, G670A/G671A)
- Sequence (O94782 whole entry G670A/G671A): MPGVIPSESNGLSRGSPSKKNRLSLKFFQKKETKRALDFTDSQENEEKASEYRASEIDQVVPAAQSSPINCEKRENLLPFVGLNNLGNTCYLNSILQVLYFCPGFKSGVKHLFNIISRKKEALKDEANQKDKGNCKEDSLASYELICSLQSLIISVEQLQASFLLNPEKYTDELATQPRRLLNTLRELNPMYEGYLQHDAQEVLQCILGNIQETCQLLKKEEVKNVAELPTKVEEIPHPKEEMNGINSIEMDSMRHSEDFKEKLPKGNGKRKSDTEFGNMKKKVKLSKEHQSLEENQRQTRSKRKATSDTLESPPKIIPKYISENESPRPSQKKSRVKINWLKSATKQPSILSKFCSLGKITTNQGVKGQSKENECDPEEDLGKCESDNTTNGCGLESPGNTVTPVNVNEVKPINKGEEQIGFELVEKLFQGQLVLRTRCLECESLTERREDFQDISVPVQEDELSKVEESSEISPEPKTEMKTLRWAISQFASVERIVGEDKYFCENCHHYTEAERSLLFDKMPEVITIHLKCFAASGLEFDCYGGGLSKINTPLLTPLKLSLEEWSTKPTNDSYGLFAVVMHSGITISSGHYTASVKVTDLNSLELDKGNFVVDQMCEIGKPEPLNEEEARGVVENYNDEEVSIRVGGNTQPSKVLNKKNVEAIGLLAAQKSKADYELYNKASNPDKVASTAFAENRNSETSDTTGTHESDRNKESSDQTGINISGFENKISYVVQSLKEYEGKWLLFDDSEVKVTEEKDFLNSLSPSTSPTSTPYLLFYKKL
- Sequence (Q8TAF3 whole entry partner): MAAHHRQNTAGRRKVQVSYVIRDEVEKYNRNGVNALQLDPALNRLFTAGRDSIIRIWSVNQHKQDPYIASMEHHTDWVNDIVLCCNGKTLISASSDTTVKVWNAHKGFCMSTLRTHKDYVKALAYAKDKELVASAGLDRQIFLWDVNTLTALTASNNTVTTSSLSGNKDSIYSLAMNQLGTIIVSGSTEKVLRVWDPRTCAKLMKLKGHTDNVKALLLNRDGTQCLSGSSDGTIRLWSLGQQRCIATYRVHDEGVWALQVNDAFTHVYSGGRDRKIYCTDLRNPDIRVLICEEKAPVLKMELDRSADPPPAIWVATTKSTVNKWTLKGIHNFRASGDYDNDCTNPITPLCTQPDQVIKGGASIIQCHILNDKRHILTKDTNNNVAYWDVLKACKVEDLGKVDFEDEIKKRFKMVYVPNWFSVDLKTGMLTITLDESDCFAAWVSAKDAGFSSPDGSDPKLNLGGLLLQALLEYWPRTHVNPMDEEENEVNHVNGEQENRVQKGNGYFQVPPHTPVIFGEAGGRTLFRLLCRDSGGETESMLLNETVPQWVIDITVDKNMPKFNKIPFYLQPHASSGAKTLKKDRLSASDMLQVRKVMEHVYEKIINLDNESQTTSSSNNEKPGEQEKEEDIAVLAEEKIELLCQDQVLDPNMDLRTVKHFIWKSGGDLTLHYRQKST
- METHOD SUMMARY: Ubiquitin-Rhodamine 110 assay for USP1 activity
- Type: biochemical
- EXPERIMENTAL PARAMETERS: USP1/UAF1 25 pM, Ub-Rh110 25 nM, 30 min preincubation
pIC50: −log10 of the molar value.

COMPOUND: CC(C)c1ccccc1-c1ncc2[nH]c(=O)n(Cc3ccc(-n4ccnn4)cc3)c2n1 [Compound I-139]
pIC50: 6.70 to 7.30

COMPOUND: CC(C)c1ncccc1-c1ncc2c(n1)n(Cc1ccc(-c3nc(C(F)(F)F)cn3C)cc1)c(=O)n2C1CS(=O)(=O)C1 [Compound I-121]
pIC50: 5.70 to 6.70

COMPOUND: COc1nc(-c2ccccc2C(C)C)nc2c1[nH]c(=O)n2Cc1ccc(-c2nc(C(F)(F)F)cn2C)cc1 [Compound I-535]
pIC50: > 7.30

COMPOUND: CC(C)c1ccccc1-c1ncc2c(n1)n(Cc1ccc(-c3nc(C(F)(F)F)cn3C3COC3)cc1)c(=O)n2C [Compound I-110]
pIC50: > 7.30

COMPOUND: CC(C)c1ccccc1-c1ncc2c(n1)n(Cc1ccc(-c3nccn3C(F)F)cc1)c(=O)n2C [Compound I-500]
pIC50: > 7.30

COMPOUND: CCN(C)C(=O)c1ccc(Cn2c(=O)[nH]c3cnc(-c4ccccc4C(C)C)nc32)cc1 [Compound I-373]
pIC50: > 7.30

COMPOUND: CC(C)Oc1ccc(-c2ncc3[nH]c(=O)n(Cc4ccc(-c5nc(C(F)(F)F)cn5C)cc4)c3n2)c(F)n1 [Compound I-74]
pIC50: 5.70 to 6.70

----------
- ASSAY SYSTEM: USP1 (construct USP1 (I-785, GG670, 671AA)/UAF1 (I-677)-Flag) (Homo sapiens (Human), UniProt O94782, G670A/G671A)
- METHOD SUMMARY: Ubiquitin-Rhodamine 110 assay for USP1 activity
- EXPERIMENTAL PARAMETERS: USP1/UAF1 25 pM, Ub-Rh110 25 nM, 30 min preincubation

SMILES REPR: COCCn1c(=O)n(Cc2ccc(-c3nc(C(F)(F)F)cn3C)cc2)c2nc(-c3cccnc3C(C)C)ncc21
IC50: < 0.05 µM
//
SMILES REPR: CCc1ncccc1-c1ncc2c(n1)n(Cc1ccc(-c3nc(C(F)(F)F)cn3C)cc1)c(=O)n2C
IC50: 0.05 to 0.2 µM
//
SMILES REPR: COCCN(C)c1ncccc1-c1ncc2[nH]c(=O)n(Cc3ccc(-c4nc(C(F)(F)F)cn4C)cc3)c2n1
IC50: 0.05 to 0.2 µM
//
SMILES REPR: CC(C)c1ccccc1-c1ncc2[nH]c(=O)n(C3CCN(c4cccnc4)CC3)c2n1
IC50: > 2 µM

----------
Below, each entry is listed with its recorded pIC50.
- ASSAY SYSTEM: USP1 (construct USP1 (I-785, GG670, 671AA)/UAF1 (I-677)-Flag) (Homo sapiens (Human), UniProt O94782, G670A/G671A)
- METHOD SUMMARY: Ubiquitin-Rhodamine 110 assay for USP1 activity
- EXPERIMENTAL PARAMETERS: USP1/UAF1 25 pM, Ub-Rh110 25 nM, 30 min preincubation
pIC50: −log10 of the molar value.

SMILES REPR: CC(C)c1ccccc1-c1ncc2c(n1)n(Cc1ccc(-c3cn(C)nn3)cc1)c(=O)n2C
pIC50: > 7.30
--
SMILES REPR: CC(C)c1ccccc1-c1ncc2c(n1)n(Cc1ccc(-c3ncc[nH]3)cc1)c(=O)n2C
pIC50: 6.70 to 7.30
--
SMILES REPR: CC(C)c1ccccc1-c1ncc2c(n1)n(Cc1ccc(-c3nccn4ccnc34)cc1)c(=O)n2C
pIC50: > 7.30
--
SMILES REPR: Cc1nc(-c2ccc(Cn3c(=O)[nH]c4cnc(-c5ccccc5C(C)C)nc43)cc2)nn1C
pIC50: > 7.30
--
SMILES REPR: CC(C)c1ccccc1-c1ncc2[nH]c(=O)n(Cc3ccc(-n4cccn4)cc3Cl)c2n1
pIC50: 6.70 to 7.30
--
SMILES REPR: CC(C)c1ccccc1-c1ncc2[nH]c(=O)n(Cc3ccc(-c4ncc(C5CCN(C)CC5)n4C)cc3)c2n1
pIC50: > 7.30
--
SMILES REPR: CC(C)c1ccccc1-c1ncc2c(n1)n(Cc1ccc(-c3nc(C(F)(F)F)cn3C)cc1)c(=O)n2C
pIC50: > 7.30

----------
- ASSAY SYSTEM: USP1 (construct USP1 (I-785, GG670, 671AA)/UAF1 (I-677)-Flag) (Homo sapiens (Human), UniProt O94782, G670A/G671A)
- METHOD SUMMARY: Ubiquitin-Rhodamine 110 assay for USP1 activity
- EXPERIMENTAL PARAMETERS: USP1/UAF1 25 pM, Ub-Rh110 25 nM, 30 min preincubation
OBSERVATION TYPE: IC50

COMPOUND: Cn1cc(C(F)(F)F)nc1-c1ccc(Cn2c(=O)[nH]c3cnc(-c4cccnc4N4CCCC4)nc32)cc1
READING: < 0.05 µM
--
COMPOUND: CC(C)NC(=O)c1ccc(Cn2c(=O)[nH]c3cnc(-c4ccccc4C(C)C)nc32)cc1
READING: < 0.05 µM
--
COMPOUND: CC(C)c1c(F)cccc1-c1ncc2[nH]c(=O)n(Cc3ccc(-n4ccnn4)cc3)c2n1
READING: 0.05 to 0.2 µM
--
COMPOUND: CC(C)c1ccccc1-c1ncc2c(n1)n(Cc1cccc(OCC3CCCN(C)C3)c1)c(=O)n2C (stereo not shown)
READING: 0.2 to 2 µM
--
COMPOUND: CCN(CC)c1ncccc1-c1ncc2[nH]c(=O)n(Cc3ccc(-c4nc(C(F)(F)F)cn4C)cc3)c2n1
READING: < 0.05 µM
--
COMPOUND: CC(C)c1ccccc1-c1ncc2c(n1)n(Cc1cccc(OCc3cncn3C)c1)c(=O)n2C
READING: 0.2 to 2 µM
--
COMPOUND: CC(C)(O)c1ccccc1-c1ncc2[nH]c(=O)n(Cc3ccc(-n4cccn4)cc3)c2n1
READING: 0.2 to 2 µM

----------
- ASSAY SYSTEM: USP1 (construct USP1 (I-785, GG670, 671AA)/UAF1 (I-677)-Flag) (Homo sapiens (Human), UniProt O94782, G670A/G671A)
- METHOD SUMMARY: Ubiquitin-Rhodamine 110 assay for USP1 activity
- EXPERIMENTAL PARAMETERS: USP1/UAF1 25 pM, Ub-Rh110 25 nM, 30 min preincubation
pIC50: −log10 of the molar value.

SMILES REPR: CC(C)c1cccnc1-c1ncc2c(n1)n(Cc1ccc(-n3cccn3)cc1)c(=O)n2C
pIC50: < 5.70
--
SMILES REPR: Cc1nc(N2CCC(Cn3c(=O)n(C)c4cnc(-c5ccccc5C(C)C)nc43)CC2)c(C)s1
pIC50: 6.70 to 7.30
--
SMILES REPR: CC(C)c1ccccc1-c1ncc2[nH]c(=O)n(Cc3ccc(-c4ccnn4C(C)C)cc3)c2n1
pIC50: 6.70 to 7.30
--
SMILES REPR: CC(C)c1ccccc1-c1ncc2[nH]c(=O)n([C@H](C)c3ccc(F)cc3)c2n1
pIC50: > 7.30

----------
- ASSAY SYSTEM: USP1 (construct USP1 (I-785, GG670, 671AA)/UAF1 (I-677)-Flag) (Homo sapiens (Human), UniProt O94782, G670A/G671A)
- METHOD SUMMARY: Ubiquitin-Rhodamine 110 assay for USP1 activity
- EXPERIMENTAL PARAMETERS: USP1/UAF1 25 pM, Ub-Rh110 25 nM, 30 min preincubation

MOLECULE: CC(C)c1ccccc1-c1ncc2[nH]c(=O)n(Cc3ccc(-c4cnccn4)cc3)c2n1
IC50: 50 to 200 nM
//
MOLECULE: Cc1cc(C)n(-c2ccc([C@@H](C)n3c(=O)[nH]c4cnc(-c5ccccc5C(C)C)nc43)cc2)n1
IC50: < 50 nM
//
MOLECULE: Cn1cc(C(F)(F)F)nc1-c1ccc(Cn2c(=O)n(C)c3cnc(-c4cccnc4N4CC(C(F)(F)F)C4)nc32)cc1
IC50: 50 to 200 nM
//
MOLECULE: CC(C)c1ccc(F)cc1-c1ncc2c(n1)n(Cc1ccc(-n3cccn3)cc1)c(=O)n2C
IC50: 200 to 2000 nM
//
MOLECULE: COc1ccn(-c2ccc(Cn3c(=O)[nH]c4cnc(-c5ccccc5C(C)C)nc43)cc2)n1
IC50: < 50 nM
//
MOLECULE: CC(C)C(=O)N1CCC(F)(Cn2c(=O)[nH]c3cnc(-c4ccccc4C(C)C)nc32)CC1
IC50: > 2000 nM
//
MOLECULE: CC(C)c1ccccc1-c1ncc2[nH]c(=O)n(Cc3ccc(-c4nc(C(F)(F)F)n(C)n4)cc3)c2n1
IC50: < 50 nM
//
MOLECULE: Cc1nc(S(=O)(=O)Nc2ccc(Cn3c(=O)n(C)c4cnc(-c5ccccc5C(C)C)nc43)cc2)cn1C
IC50: > 2000 nM
//
MOLECULE: CC(C)c1ccccc1-c1ncc2[nH]c(=O)n(Cc3ccc(-n4ccc(C5CCNC5)n4)cc3)c2n1 (stereo not drawn)
IC50: 200 to 2000 nM
//
MOLECULE: Cc1cc(C)n([C@H]2CC[C@@H](Cn3c(=O)[nH]c4cnc(-c5ccccc5C(C)C)nc43)CC2)n1
IC50: < 50 nM
//
MOLECULE: COC[C@H]1CCCN1C(=O)c1ccc(Cn2c(=O)[nH]c3cnc(-c4ccccc4C(C)C)nc32)cc1
IC50: 200 to 2000 nM
//
MOLECULE: COCCNc1ccc(Cn2c(=O)n(C)c3cnc(-c4ccccc4C(C)C)nc32)cc1
IC50: 50 to 200 nM
//
MOLECULE: CC(C)c1ccccc1-c1ncc2[nH]c(=O)n(C3(c4ccc(-n5cccn5)cc4)CC3)c2n1
IC50: < 50 nM
//
MOLECULE: CCOc1ncccc1-c1ncc2[nH]c(=O)n(Cc3ccc(-c4nc(C(F)(F)F)cn4C)cc3)c2n1
IC50: < 50 nM
//
MOLECULE: CC(C)c1ccccc1-c1ncc2[nH]c(=O)n(Cc3ccc4c(c3)CN(C)C4=O)c2n1
IC50: 50 to 200 nM

All figures here come from patent US10189841B2.
